# system_tested: C5aR (Homo sapiens (Human), UniProt P21730)
# Sequence (P21730 whole entry): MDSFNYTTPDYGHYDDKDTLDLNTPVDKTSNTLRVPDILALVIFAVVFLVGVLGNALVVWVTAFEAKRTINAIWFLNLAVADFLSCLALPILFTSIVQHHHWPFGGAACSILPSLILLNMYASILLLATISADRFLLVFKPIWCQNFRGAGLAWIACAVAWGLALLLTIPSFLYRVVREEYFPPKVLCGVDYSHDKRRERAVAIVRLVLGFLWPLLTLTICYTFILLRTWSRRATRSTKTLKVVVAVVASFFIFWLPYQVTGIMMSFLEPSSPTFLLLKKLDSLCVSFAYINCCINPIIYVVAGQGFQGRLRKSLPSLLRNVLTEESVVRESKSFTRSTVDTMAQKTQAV
# test_summary: Chemotaxis assay using U937 cells (C5aR mediated migration)
# condition_description: read-out: Mig IC50
assay_metric: IC50

Cc1cccc(OCC(C)C)c1-n1nc2c(c1-c1cc(F)c(NC(N)=O)cc1Cl)CN(c1ncc(C(F)(F)F)cc1F)CC2 [Example 1.217] on C5aR (Homo sapiens (Human), UniProt P21730) gives IC50 = ≤ 5 nM

Lab entry: C5aR (Homo sapiens (Human), UniProt P21730) assay, compound Cc1cc(C(C)C)cnc1N1CCc2nn(-c3c(C)cccc3OCC(C)C)c(-c3cc(F)c(NC(N)=O)cc3F)c2C1 [Example 1.185] , IC50 = ≤ 5 nM

Measured on C5aR (Homo sapiens (Human), UniProt P21730), COc1cccc(C)c1-n1nc2c(c1-c1ccc(NC(N)=O)cc1)CN(c1ccccc1C(C)C)CC2 [Example 1.482] has a documented IC50 of 5 to 50 nM

Let me check: Cc1cccc(C)c1-n1nc2c(c1-c1cc(F)c(NC(N)=O)cc1F)CN(c1cc(C(F)(F)F)ccc1F)CC2 [Example 1.094] , system C5aR (Homo sapiens (Human), UniProt P21730), measured IC50 is ≤ 5 nM
